- assay.details: Comparison of toxicity of orally and intravenously administered brincidofovir (rat intestine)
- Assay type: in vivo
- condition.notes: Sprague-Dawley CD, rat, in vivo; IV, repeat dose 1 mg/kg; read-out: Exposure Cmax
assay.endpoint: Cmax (ng/mL)
The reply should contain only the number, in ng/mL.

Ask: Dear colleague, I am looking for the recorded Cmax of the following compound: CCCCCCCCCCCCCCCCOCCCOP(=O)(O)CO[C@H](CO)Cn1ccc(N)nc1=O [Brincidofovir]
Reply: 298

* * *

- assay.details: Phase 2 toxicokinetics of brincidofovir and cidofovir in plasma
- Type: in vivo, Sprague-Dawley CD rats
- condition.notes: female, Sprague-Dawley CD, rat, plasma, intravenous, 1 mg/kg, plasma; brincidofovir 1 mg/kg 2-h IV infusion; female rats; Day 1; 2 h; BLQ imputed as zero; read-out: Imputed Concentration, individual animals
assay.endpoint: concentration at 2 h (ng/mL)
The reply should contain only the number, in ng/mL.

INSERT INTO results (substance_smiles, assay_endpoint, obs_value) VALUES
  ('CCCCCCCCCCCCCCCCOCCCOP(=O)(O)CO[C@H](CO)Cn1ccc(N)nc1=O', 'concentration at 2 h', 253);

# evaluate next
Ask: Dear colleague, I am looking for the recorded concentration at 2 h of the following compound: Nc1ccn(C[C@@H](CO)OCP(=O)(O)O)c(=O)n1
Reply: 9.62

* * *

- assay.details: Plasma BCV PK following single dose oral tablet administration (Table 105)
- Type: in vivo
- condition.notes: human, plasma, po, 200 mg, 200 mg Oral Tablet, N = 63, geometric mean
assay.endpoint: AUC(0-inf) (ng·h/mL)
The reply should contain only the number, in ng·h/mL.

Ask: Dear colleague, I am looking for the recorded AUC(0-inf) of the following compound: CCCCCCCCCCCCCCCCOCCCOP(=O)(O)CO[C@H](CO)Cn1ccc(N)nc1=O [Brincidofovir]
Reply: 3740

* * *

- assay.details: Phase 2 toxicokinetics of brincidofovir and cidofovir in plasma
- Format: in vivo, Sprague-Dawley CD rats
- condition.notes: female, Sprague-Dawley CD, rat, plasma, intravenous, 15 mg/kg, plasma; 15 mg/kg; female rats; Day 7; 24 h; read-out: C (Concentration), individual animals
assay.endpoint: concentration at 24 h (ng/mL)
The reply should contain only the number, in ng/mL.

Ask: Dear colleague, I am looking for the recorded concentration at 24 h of the following compound: CCCCCCCCCCCCCCCCOCCCOP(=O)(O)CO[C@H](CO)Cn1ccc(N)nc1=O
Reply: 2.37

* * *

- assay.details: Comparison of toxicity of orally and intravenously administered brincidofovir (rat intestine)
- Type: in vivo
- condition.notes: rat, in vivo; oral, single dose 1000 mg/kg; read-out: Exposure Cmax
assay.endpoint: Cmax (ng/mL)
The reply should contain only the number, in ng/mL.

Ask: Dear colleague, I am looking for the recorded Cmax of the following compound: CCCCCCCCCCCCCCCCOCCCOP(=O)(O)CO[C@H](CO)Cn1ccc(N)nc1=O
Reply: 1380

* * *

- assay.details: Comparison of toxicity of orally and intravenously administered brincidofovir (rat intestine)
- Format: in vivo
- condition.notes: rat, in vivo; oral, single dose 30 mg/kg; read-out: Exposure AUC
assay.endpoint: AUC (ng·h/mL)
The reply should contain only the number, in ng·h/mL.

Ask: Dear colleague, I am looking for the recorded AUC of the following molecule: CCCCCCCCCCCCCCCCOCCCOP(=O)(O)CO[C@H](CO)Cn1ccc(N)nc1=O
Reply: 5560
